target-system: T1, HLA-A*0201 class I monomer on avidin-coated plates (iTopia Epitope Discovery System) (human)
T1 construct: Bought kit (Beckman Coulter); also called A0201 restricted MHC Class 1 molecules; MHC monomer
protocol-summary: iTopia off-rate assay
Square brackets hold non-standard residues; d marks the D form. Ends that are not written are not given here. Nle = CCCC[C@H](N)C(=O)O; Nva = CCC[C@H](N)C(=O)O
metric-name: Half-Life (T1/2) (h)
Enter your answer as a number in h; do not include the unit.

Example entries begin here.
binder: YMDGTMSQV [Tyrosinase 369-377]
unit-name: h
Half-Life (T1/2): 14.4
--
binder: S[Nva]LMWITQV (also called SNvaLMWITQV) [NY-ESO-1 157-165 (L158Nva, C165V)]
unit-name: h
Half-Life (T1/2): 17
--
binder: S[Nva]LQHLIG[Nle] (also called S{Nva}LQHLIG{Nle}; L426Nva L433Nle analog) [Prame 425-433 (L426Nva, L433Nle)]
unit-name: h
Half-Life (T1/2): 16.9

**Query** Sample YMDGTMSQX (norvaline (Nva) at position 377 (P9)) [Tyrosinase 369-377 (V377Nva)] — what was its Half-Life (T1/2)?
**Result** 14.7

Values from patent US20070060518A1
